- System: mCMV Smith
- assay.procedure: Primary CPE reduction assay, mCMV Smith
- Format: cell-based, murine Cytomegalovirus
- test.settings: mCMV Smith
measure: TI (therapeutic index derived from EC50/CC50)

Answered cases to consult:
>>> print(df.to_string())
                                   compound  result
0  N.Nc1ccn(C[C@@H](CO)OCP(=O)(O)OCCCS(=O)(=O)CCCCCCCCCCCCCC2CCC2)c(=O)n1   >3125
1  Nc1nc(O)c2ncn(COC(CO)CO)c2n1 [Ganciclovir, reference compound]    >882

Bench note, mCMV Smith: CC1(CCCCCCCCCCCCS(=O)(=O)CCCOP(=O)(O)CO[C@H](CO)Cn2cnc(N)cc2=O)COC1 , TI (therapeutic index derived from EC50/CC50) reads 2213

Considering N.Nc1ccn(C[C@@H](CO)OCP(=O)(O)OCCCS(=O)(=O)CCCCCCCCCCC2CCC2)c(=O)n1 , its TI (therapeutic index derived from EC50/CC50) with mCMV Smith was recorded as >3125

Case N.Nc1ccn(C[C@@H](CO)OCP(=O)(O)OCCCS(=O)(=O)CCCCCCCCCCCCC2CCC2)c(=O)n1 , mCMV Smith, TI (therapeutic index derived from EC50/CC50) recorded as >3125

###

The entries below come with measured TI (therapeutic index derived from EC50/CC50) values attached.
- System: hCMV2 GDGRK17
- assay.procedure: Primary CPE reduction assay in HFF cells, hCMV GDGRK17
- Assay type: cell-based, human Cytomegalovirus
- test.settings: hCMV2 GDGRK17, HFF cells

// solved cases for TI (therapeutic index derived from EC50/CC50) follow
>>> df
                                   molecule  result
0  N.Nc1ccn(C[C@@H](CO)OCP(=O)(O)OCCCS(=O)(=O)CCCCCCCCCCCCCC2CCC2)c(=O)n1   >2209
1  N.Nc1ccn(C[C@@H](CO)OCP(=O)(O)OCCCS(=O)(=O)CCCCCCCCCCC2CCC2)c(=O)n1   >2772
2  N.Nc1ccn(C[C@@H](CO)OCP(=O)(O)OCCCS(=O)(=O)CCCCCCCCCCCCC2CCC2)c(=O)n1   >2753
3  Nc1nc(O)c2ncn(COC(CO)CO)c2n1 [Ganciclovir, reference compound]   >1030

Bench note, hCMV2 GDGRK17: entry CC1(CCCCCCCCCCCCS(=O)(=O)CCCOP(=O)(O)CO[C@H](CO)Cn2cnc(N)cc2=O)COC1 , its TI (therapeutic index derived from EC50/CC50) = >3125
